molecular target: Receptor tyrosine-protein kinase erbB-2 (Homo sapiens) (UniProt P04626); test: Her2 expression decrease, cell viability multiplex – SKBR3 breast tumor cells, AlphaScreen, ATP viability, primary screen (AID 461); conditions: 18-24 h, at 10 µM, stronger effect = lower value;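 further: lower value means less Her2 protein in the cells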
Sequence (P04626 whole entry, looked up): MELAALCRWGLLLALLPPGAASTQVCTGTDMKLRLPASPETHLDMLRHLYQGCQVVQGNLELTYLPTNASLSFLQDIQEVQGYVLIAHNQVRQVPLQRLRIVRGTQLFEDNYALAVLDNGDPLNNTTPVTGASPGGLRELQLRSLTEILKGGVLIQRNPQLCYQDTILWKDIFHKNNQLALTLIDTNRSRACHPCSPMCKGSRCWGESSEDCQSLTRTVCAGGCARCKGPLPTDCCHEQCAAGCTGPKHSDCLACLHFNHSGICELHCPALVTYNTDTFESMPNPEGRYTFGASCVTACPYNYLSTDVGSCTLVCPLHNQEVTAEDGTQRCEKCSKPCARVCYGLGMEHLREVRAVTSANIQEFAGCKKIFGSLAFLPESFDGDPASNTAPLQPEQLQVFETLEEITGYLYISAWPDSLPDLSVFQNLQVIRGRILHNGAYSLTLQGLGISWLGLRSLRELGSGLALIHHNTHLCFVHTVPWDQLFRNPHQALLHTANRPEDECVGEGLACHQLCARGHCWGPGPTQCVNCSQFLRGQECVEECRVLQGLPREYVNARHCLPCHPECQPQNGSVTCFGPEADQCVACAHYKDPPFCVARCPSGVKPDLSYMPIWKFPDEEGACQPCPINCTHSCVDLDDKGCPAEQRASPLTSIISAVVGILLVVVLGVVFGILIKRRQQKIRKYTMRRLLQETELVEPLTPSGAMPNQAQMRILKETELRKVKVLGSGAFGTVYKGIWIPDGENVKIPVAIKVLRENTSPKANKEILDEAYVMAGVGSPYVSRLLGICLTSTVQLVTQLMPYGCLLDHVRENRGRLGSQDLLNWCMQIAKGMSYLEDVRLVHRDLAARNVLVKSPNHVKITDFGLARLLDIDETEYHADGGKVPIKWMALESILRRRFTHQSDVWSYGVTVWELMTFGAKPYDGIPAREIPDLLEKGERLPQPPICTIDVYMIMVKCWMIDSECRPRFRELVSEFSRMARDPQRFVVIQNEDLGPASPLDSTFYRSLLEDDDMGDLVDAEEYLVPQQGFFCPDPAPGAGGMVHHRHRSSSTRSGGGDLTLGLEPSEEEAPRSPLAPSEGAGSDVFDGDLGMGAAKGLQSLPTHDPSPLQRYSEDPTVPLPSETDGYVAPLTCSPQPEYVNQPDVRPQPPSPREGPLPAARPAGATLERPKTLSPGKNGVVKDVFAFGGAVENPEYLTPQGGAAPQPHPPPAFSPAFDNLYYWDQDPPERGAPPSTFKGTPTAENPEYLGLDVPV
outcome.measure: Her2 level (%)
Write the value in % as a bare number.

Task: Param item = COC(=O)CSc1nnc(-c2ccncc2)o1 ; retrieve measured Her2 level.
Output: 127

Task: Param item = CC(=O)OC1c2ccccc2C(=O)N1Cc1ccccc1Cl (stereo unspecified) ; retrieve measured Her2 level.
Output: 92.5

Task: Param item = COc1ccc(-n2nnnc2SCC(=O)N2CCOCC2)cc1 ; retrieve measured Her2 level.
Output: 92

Task: Param item = CCOCCn1c(CN2CCN(CC)CC2)nc2c1c(=O)n(C)c(=O)n2C ; retrieve measured Her2 level.
Output: 109

Task: Param item = Cc1cc(C)c(C(=O)Nc2ccc(S(=O)(=O)Nc3onc(C)c3C)cc2)c(C)c1 ; retrieve measured Her2 level.
Output: 100

Task: Param item = COc1ccc(N(C)C(=O)CCS(=O)(=O)c2cccc3nonc23)cc1 ; retrieve measured Her2 level.
Output: 85
